pKi: −log10 of the molar value.
Below are compounds with their pKi as measured on GST-Bcl-2 (Homo sapiens, UniProt P10415).
Sequence (P10415 whole entry): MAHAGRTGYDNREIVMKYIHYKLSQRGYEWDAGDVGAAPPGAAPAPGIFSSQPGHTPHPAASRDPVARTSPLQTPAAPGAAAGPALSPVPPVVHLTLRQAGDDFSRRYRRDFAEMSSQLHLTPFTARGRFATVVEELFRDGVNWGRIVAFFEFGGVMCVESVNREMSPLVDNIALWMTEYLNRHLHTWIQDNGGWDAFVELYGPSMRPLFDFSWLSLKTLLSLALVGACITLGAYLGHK

{"compound": "CC1(C)CCC(CN2CCN(c3ccc(C(=O)NS(=O)(=O)c4cnc(OCC5CCC(C)(O)CC5)c(Cl)c4)c(Oc4cccc5[nH]nc(N)c45)c3)CC2)=C(c2ccc(Cl)cc2)C1 (stereo not drawn) [Example 445]", "reading-qualifier": ">", "pKi": 11.00}
{"compound": "CC1(C)CCC(CN2CCN(c3ccc(C(=O)NS(=O)(=O)c4cnc(OC[C@H]5CC[C@H](O)CC5)c(Cl)c4)c(Oc4cc(F)cc5[nH]ncc45)c3)CC2)=C(c2ccc(Cl)cc2)C1 [Example 414]", "reading-qualifier": "=", "pKi": 10.85}
{"compound": "CC1(C)CCC(CN2CCN(c3ccc(C(=O)NS(=O)(=O)c4cnc(OCC5CCC(C)(O)CC5)c(Cl)c4)c(Oc4cc(F)cc5[nH]ncc45)c3)CC2)=C(c2ccc(Cl)cc2)C1 (stereo not drawn) [Example 424]", "reading-qualifier": ">", "pKi": 11.00}
{"compound": "CC1(C)CCC(CN2CCN(c3ccc(C(=O)NS(=O)(=O)c4ccc(NC[C@H]5CN(C6COC6)CCO5)c([N+](=O)[O-])c4)c(Oc4cnc(N)c(Cl)c4)c3)CC2)=C(c2ccc(Cl)cc2)C1 [Example 448]", "reading-qualifier": ">", "pKi": 11.00}
{"compound": "CC1(C)CCC(CN2CCN(c3ccc(C(=O)NS(=O)(=O)c4ccc(OCC5(F)CCOCC5)c([N+](=O)[O-])c4)c(Oc4cccc5[nH]nc(N)c45)c3)CC2)=C(c2ccc(Cl)cc2)C1 [Example 429]", "reading-qualifier": ">", "pKi": 11.00}
{"compound": "CC1(C)CCC(CN2CCN(c3ccc(C(=O)NS(=O)(=O)c4ccc(NCC5(F)CCOCC5)c([N+](=O)[O-])c4)c(Oc4cc(F)cc5[nH]ncc45)c3)CC2)=C(c2ccc(Cl)cc2)C1 [Example 418]", "reading-qualifier": ">", "pKi": 11.00}
{"compound": "CC1(C)CCC(CN2CCN(c3ccc(C(=O)NS(=O)(=O)c4ccc(NCC5(F)CCOCC5)c([N+](=O)[O-])c4)c(Oc4cccc5[nH]nc(N)c45)c3)CC2)=C(c2ccc(Cl)cc2)C1 [Example 428]", "reading-qualifier": ">", "pKi": 11.00}
{"compound": "CC1(C)CCC(CN2CCN(c3ccc(C(=O)NS(=O)(=O)c4cnc(OCC5(F)CCC(C)(O)CC5)c(Cl)c4)c(Oc4cnc(N)c(Cl)c4)c3)CC2)=C(c2ccc(Cl)cc2)C1 (stereo not drawn) [Example 443]", "reading-qualifier": "=", "pKi": 10.54}
{"compound": "CC1(C)CCC(CN2CCN(c3ccc(C(=O)NS(=O)(=O)c4cnc(OCC5(F)CCOCC5)c(Cl)c4)c(Oc4cc(F)cc5[nH]ncc45)c3)CC2)=C(c2ccc(Cl)cc2)C1 [Example 415]", "reading-qualifier": "=", "pKi": 10.89}
{"compound": "CC1(C)CCC(CN2CCN(c3ccc(C(=O)NS(=O)(=O)c4ccc(NCC5CCC(C)(O)CC5)c([N+](=O)[O-])c4)c(Oc4cnc(N)c(Cl)c4)c3)CC2)=C(c2ccc(Cl)cc2)C1 (stereo not drawn) [Example 437]", "reading-qualifier": ">", "pKi": 11.00}
{"compound": "CN1CCC(C)(Nc2ccc(S(=O)(=O)NC(=O)c3ccc(N4CCN(CC5=C(c6ccc(Cl)cc6)CC(C)(C)CC5)CC4)cc3Oc3ccccc3Cl)cc2[N+](=O)[O-])CC1 [Example 168]", "reading-qualifier": "=", "pKi": 7.55}
{"compound": "CO[C@H]1CC[C@H](CNc2ccc(S(=O)(=O)NC(=O)c3ccc(N4CCN(CC5=C(c6ccc(Cl)cc6)CC(C)(C)CC5)CC4)cc3Oc3cccc4[nH]nc(N)c34)cc2[N+](=O)[O-])CC1 [Example 435]", "reading-qualifier": "=", "pKi": 11.00}
{"compound": "CC1(C)CCC(CN2CCN(c3ccc(C(=O)NS(=O)(=O)c4ccc(OCC5CCC6(CC5)COC6)c([N+](=O)[O-])c4)c(Oc4cnc(N)c(Cl)c4)c3)CC2)=C(c2ccc(Cl)cc2)C1 [Example 440]", "reading-qualifier": "=", "pKi": 10.66}
{"compound": "Cn1c(=O)[nH]c2cccc(Oc3cc(N4CCN(CC5=C(c6ccc(Cl)cc6)CC(C)(C)CC5)CC4)ccc3C(=O)NS(=O)(=O)c3ccc(OCC4CCOCC4)c(Cl)c3)c21 [Example 438]", "reading-qualifier": "=", "pKi": 10.51}
{"compound": "Cn1c(=O)[nH]c2cccc(Oc3cc(N4CCN(CC5=C(c6ccc(Cl)cc6)CC(C)(C)CC5)CC4)ccc3C(=O)NS(=O)(=O)c3cnc(OCC4CCOCC4)c(Cl)c3)c21 [Example 425]", "reading-qualifier": "=", "pKi": 10.89}
{"compound": "CC1(C)CCC(CN2CCN(c3ccc(C(=O)NS(=O)(=O)c4ccc(NCC5(F)CCOCC5)c([N+](=O)[O-])c4)c(Oc4ccc(F)c5[nH]ncc45)c3)CC2)=C(c2ccc(Cl)cc2)C1 [Example 423]", "reading-qualifier": ">", "pKi": 11.00}
{"compound": "CC1(C)CCC(CN2CCN(c3ccc(C(=O)NS(=O)(=O)c4ccc(NCC5CCOCC5)c([N+](=O)[O-])c4)c(Oc4cccc5[nH]nc(N)c45)c3)CC2)=C(c2ccc(Cl)cc2)C1 [Example 431]", "reading-qualifier": ">", "pKi": 11.00}
{"compound": "CC1(C)CCC(CN2CCN(c3ccc(C(=O)NS(=O)(=O)c4ccc(OC[C@H]5CC[C@@](C)(O)CC5)c([N+](=O)[O-])c4)c(Oc4cnc(N)c(Cl)c4)c3)CC2)=C(c2ccc(Cl)cc2)C1 [Example 436]", "reading-qualifier": ">", "pKi": 11.00}
{"compound": "O=C(NS(=O)(=O)c1cnc(OCC2(F)CCOCC2)c(Cl)c1)c1ccc(N2CCN(CC3=C(c4ccc(Cl)cc4)CCN(C(CF)CF)C3)CC2)cc1Oc1cc2cc[nH]c2cc1F [Example 417]", "reading-qualifier": "=", "pKi": 8.16}
{"compound": "CC1(C)CCC(CN2CCN(c3ccc(C(=O)NS(=O)(=O)c4cnc(OCC5(F)CCOCC5)c(Cl)c4)c(Oc4cccc5[nH]nc(N)c45)c3)CC2)=C(c2ccc(Cl)cc2)C1 [Example 430]", "reading-qualifier": ">", "pKi": 11.00}
{"compound": "CC1(C)CCC(CN2CCN(c3ccc(C(=O)NS(=O)(=O)c4cnc(OCC5CCC(C)(O)CC5)c(Cl)c4)c(Oc4cccc5[nH]nc(Cl)c45)c3)CC2)=C(c2ccc(Cl)cc2)C1 (stereo not drawn) [Example 446]", "reading-qualifier": "=", "pKi": 10.82}

// data source = patent US9029404B2
